target: HLA-DR molecule encoded by the allele DRB1*0101 (human); test: competition ELISA vs biotinylated HA 306-318
pIC50: −log10 of the molar value.
Think of 6 as a floor: if pIC50 stands on it or above, it is met; beneath it, not met.

Input line: Check if pIC50 >= 6 (inclusive). Item: AAVDLSHFLKEKGGL (modifications not checked) [Nef4.7 peptide (positions 83-97 of the HIV-1 Nef protein, Bru strain), P03406 83-97]
Output line: met

Input line: How about LEKHGAITSSNTAATNAACAWLEAQEEEEVGFPVT (modifications not checked) [Nef3 peptide (positions 37-71 of the HIV-1 Nef protein, Bru strain), P03406 37-71] ?
Output line: not met

Input line: Now try LTFGWCYKLVPVEPDKVEEANKGENTSLLHPV (modifications not checked) [Nef10 peptide (positions 137-168 of the HIV-1 Nef protein, Bru strain), P03406 137-168] .
Output line: met
